Experiment: qHTS for Inhibitors of human tyrosyl-DNA phosphodiesterase 1 (TDP1): qHTS in cells in presence of CPT; also: nearly all actives have a fitted effect of over 55% in size; also: potency is read from the fitted curve at half-maximal effect
Settings: chicken DT40 Tdp1-/-;hTDP1 cells + 20 nM CPT, ATP luminescence, 48 h; series mostly up to 46.2 µM
Method: Human tyrosyl-DNA phosphodiesterase 1 (TDP1) is a novel repair gene, and we propose to use it as a new target for anticancer drug development. […] For the primary screen, Tdp1-/-;hTDP1 cells will be exposed to small molecules in the presence or absence of CPT, and their growth kinetics will be evaluated after 48 hours by measuring ATP activity. […] The hit compounds will then be evaluated in the presence or absence of CPT using Tdp1-/- cells. […]
The whole screen tested about 420,000 compounds, of which about 50,000 (12%) were called active. About 26% were inconclusive and are not listed. What follows is part of a selection rich in actives, with near analogues and random picks from the rest.
quantity.measured: Potency

Answered cases to consult:
INSERT INTO measurements (compound, measured_value) VALUES
  ('CCCCC(=O)N(C)c1c(CC)nc2c(OCc3ccc(Cl)cc3Cl)cccn12', '20.6 µM (active)'),
  ('Clc1ccc(-c2ncc3ccccn23)c(Cl)c1', 'inactive'),
  ('CCc1nc2c(OCc3ccc(Cl)cc3Cl)cccn2c1N(C)C(=O)C(C)C', '7.31 µM (active)'),
  ('COC(=O)c1ccc(CSc2nncn2C)cc1', 'inactive'),
  ('CCOC(=O)CSC1=C(C#N)C(c2sccc2C)CC(=O)N1 (stereo unspecified)', '3.55 µM (active)'),
  ('CCc1nc2c(OCc3ccc(C(=O)OC)cc3)cccn2c1N(C)C(=O)C(C)C', '20.6 µM (active)');

*Q* Given the compound COC(=O)c1ccc(COC(=O)c2cnccn2)cc1 , what is its reported Potency?
*A* inactive

*Q* Consider the compound Cc1cccc(S(=O)(=O)N(C)C[C@H]2OCc3cnnn3CCCC(=O)N([C@@H](C)CO)C[C@H]2C)c1 and give its measured Potency.
*A* inactive

*Q* So what does the record say about Potency for CCc1nc2c(OCC(=O)C(C)(C)C)cccn2c1N(C)C(=O)c1ccccc1F ?
*A* inactive

*Q* What value of Potency has been recorded for this entry: CC(C)CC(=O)Nc1ccc(Cc2ccncc2)cc1
*A* inactive

*Q* May I ask what Potency has been recorded for Cc1nc2c(OCc3ccc(Cl)cc3Cl)cccn2c1N(C)CC1CC1 ?
*A* 16.4 µM (active)

###

assay: qHTS for Inhibitors of human tyrosyl-DNA phosphodiesterase 1 (TDP1): qHTS in cells in presence of CPT; settings: chicken DT40 Tdp1-/-;hTDP1 cells + 20 nM CPT, ATP luminescence, 48 h; series mostly up to 46.2 µM; also: nearly all actives have a fitted effect of over 55% in size; also: potency is read from the fitted curve at half-maximal effect
The campaign covered roughly 420,000 compounds. About 50,000 (12%) were called active. Not shown: some 26% with an inconclusive outcome. The sample as a whole holds a higher share of actives than the screen did.
quantity.measured: Potency

Check out these entries, answers already filled in.
INSERT INTO results (compound, measured_value) VALUES
  ('O=c1[nH]c2ccc(S(=O)(=O)N3CCCC3)cc2[nH]1', 'inactive'),
  ('COc1cc(C2CC(=O)c3cnc(NC(C)=O)nc3C2)cc(OC)c1OC (stereo unspecified)', 'inactive'),
  ('CCOc1nc(-c2ccc(OC)cc2)ccc1-c1noc(-c2cc(OC)c(OC)c(OC)c2)n1', '5.17 µM (active)'),
  ('CN1CCN(CCNC(=O)Nc2ccccc2[N+](=O)[O-])CC1', 'inactive'),
  ('N#Cc1ccccc1NC(=O)c1cccc(COc2ccc(Cl)cc2Cl)c1', 'inactive');

*Q* Which Potency value belongs to Cc1nc2ccc(N)nc2nc1C ?
*A* inactive

*Q* Which Potency reading was recorded for the compound O=C(Nc1ccc(F)cc1)C(CCc1ccccc1)N1CCN(CC(=O)N2CCCC2)CC1 (stereo unspecified) ?
*A* inactive

*Q* Quick one: Potency of CCOC(=O)C1=C(N)N2C(=O)C(C)SC2=C(C(=O)OCC)C1c1cc(OC)c(OC)c(OC)c1 (stereo unspecified) ?
*A* inactive

*Q* Query (compound): COc1cc(OC)cc(C(=O)NCC(=O)OCc2csc(-c3ccccc3)n2)c1 ; field requested: Potency
*A* 16.4 µM (active)

*Q* Look up Potency for this compound: COc1ccc(-c2cn(-c3ccc(C)cc3)c(=O)n2CC(=O)Nc2ccc(OC)c(OC)c2)cc1
*A* inactive

*Q* If you can, please state the reported Potency value of CC(C)Oc1ccc(CN2CCC(n3nccc3NC(=O)c3cccnc3)CC2)cc1 .
*A* inactive

*Q* Suppose we examine the compound CCOC(=O)C1=C(C)NC(=S)NC1c1cccs1 (stereo unspecified) ; what Potency value has been reported?
*A* inactive

*Q* // returns reported Potency for input Fc1ccc(NC(=S)N2CCc3[nH]c4ccccc4c3C2)cc1
*A* inactive

*Q* Would you mind telling me what Potency value was observed for CC(C)N(C(=O)[C@H]1C[C@H](CC(=O)NC(C)(C)C)C(=O)N2CCc3c([nH]c4ccc(Cl)cc34)[C@]12C)C(C)C ?
*A* 7.31 µM (active)

###

assay: qHTS for Inhibitors of human tyrosyl-DNA phosphodiesterase 1 (TDP1): qHTS in cells in presence of CPT; conditions: chicken DT40 Tdp1-/-;hTDP1 cells + 20 nM CPT, ATP luminescence, 48 h; series mostly up to 46.2 µM; also: nearly all actives have a fitted effect of over 55% in size
Out of some 420,000 compounds screened, about 50,000 (12%) were called active. Inconclusive results (about 26%) are left out. Calls come from the whole dose curve; as a rule, active = well fitted inhibition curve with a large enough effect; inconclusive = small, poorly fitted or top-dose-only effect; inactive = flat fitted curve, though single readings scatter. This is one part of a sample in which actives are shown more often than they occur.
Returns: one label drawn from 1 (active), 0 (inactive)

INSERT INTO measurements (molecule, answer_label) VALUES
  ('Cc1ccc(NS(=O)(=O)c2ccc3c(c2)NC(=O)CO3)cc1', 0);

*Q* Dear all, I need the recorded test outcome for C#CCOc1ccc(/C=C2/C(=O)NN(c3ccccc3)C2=O)cc1OC , thank you.
*A* 0

*Q* Please indicate how the test categorized CCCNC(=O)C1CCC(Cn2c(=O)c3sccc3n(Cc3ccccc3F)c2=O)CC1 (configuration not stated) .
*A* 1

*Q* # outcome recorded in this test, key = O=C1OC(Cc2ccccc2)C(c2ccccc2)C1=O (configuration not stated)
*A* 0

*Q* Lab log entry: CCCNC(=O)NC(=O)COC(=O)CC(NC(N)=O)c1ccc(Cl)cc1 (configuration not stated) — outcome as called in the assay?
*A* 0

*Q* What call does the record list for Cn1c(=O)c2c(ncn2CC(=O)N/N=C/c2cn[nH]c2-c2ccc(F)cc2)n(C)c1=O ?
*A* 0

*Q* Identify the outcome logged in this assay for the molecule shown: Cc1ccc(C2SCC(=O)N2c2ccccc2)cc1 (configuration not stated)
*A* 0

*Q* Check the results log: what was the call for O=C1CC(c2ccccc2)C(=O)N1c1cccc(O)c1 (configuration not stated) ?
*A* 0

*Q* What was the test verdict on O=[N+]([O-])c1ccc(Oc2ccc(F)cc2Br)c2ccncc12 ?
*A* 1

*Q* What did this assay record as the result for O=C(C1CCN(CC2CCCCC2)CC1)N1CCCC1 ?
*A* 0

*Q* Entry O=C(C1CCC(Cn2c(=O)c3sccc3n(Cc3ccccc3F)c2=O)CC1)N1CCCCC1 (configuration not stated) : call = ?
*A* 1

*Q* Please share the test call associated with COC(=O)[C@@]1(Sc2ccc(C)cc2)CC(=O)N(c2cccc(SC)c2)[C@@H]1c1ccccc1 .
*A* 1

*Q* Any idea what this test logged for Cc1cc(-c2ccccc2)nc(N2CCC(C(=O)NC34CC5CC(CC(C5)C3)C4)CC2)n1 ?
*A* 0

*Q* Please let me know the test result on file for Cc1cccc(Cn2c(=O)n(CCC(=O)NCCc3ccc(Cl)cc3)c(=O)c3sccc32)c1 .
*A* 0

*Q* Outcome logged for COc1ccccc1OCCNC(=O)C(CCSC)NC(=O)COc1ccccc1 (configuration not stated) in this assay:
*A* 0

###

test: qHTS for Inhibitors of human tyrosyl-DNA phosphodiesterase 1 (TDP1): qHTS in cells in presence of CPT; conditions: chicken DT40 Tdp1-/-;hTDP1 cells + 20 nM CPT, ATP luminescence, 48 h; series mostly up to 46.2 µM; also: nearly all actives have a fitted effect of over 55% in size
Hit rate of the full screen: of about 420,000 compounds, about 50,000 (12%) were called active. About 26% were inconclusive and are not listed. Calls come from the whole dose curve; as a rule, active = well fitted inhibition curve with a large enough effect; inconclusive = small, poorly fitted or top-dose-only effect; inactive = flat fitted curve, though single readings scatter. The sample as a whole holds a higher share of actives than the screen did.
Mark one answer only. Choices: t for active, f for inactive

INSERT INTO assay_data (compound, answer_label) VALUES
  ('COC(CNC(=O)c1ccc2c(c1)ncn2-c1cc(C)cc(C)c1)OC', 'f'),
  ('CCNC(=O)COc1cc(C)c(Br)c(C)c1', 'f'),
  ('O=C(COC(=O)c1ccc(S(=O)(=O)N2CCCCCC2)cc1)Nc1ccccc1C(F)(F)F', 'f'),
  ('COc1ccc(-n2c(C)cc(C(=O)CN3C(=O)NC4(CCc5ccccc54)C3=O)c2C)cc1 (stereo not drawn)', 't'),
  ('CN(c1ccc(C(=O)NCCC2=CCCCC2)cc1)S(C)(=O)=O', 'f'),
  ('COc1cc2c(cc1OC)C(/C=C/c1ccco1)=NCC2', 't'),
  ('CCC1S/C(=N/N=C/c2ccco2)NC1=O (stereo not drawn)', 'f'),
  ('COc1ccc(C(=O)CN2C(=O)NC3(CCc4ccccc43)C2=O)c(OC)c1 (stereo not drawn)', 'f');

*Q* Test call for this compound, please: CCOC(=O)CNC(=O)c1cc2c(=O)n3cccc(C)c3nc2s1
*A* f

*Q* What did the test return for CCOc1cccc(OCCCOc2cccc3cccnc23)c1 ?
*A* f

*Q* # fetch the recorded call for NC(=O)Cc1nc2scc(-c3ccc(Cl)cc3)c2c(=O)[nH]1 here
*A* f

*Q* # fetch the recorded call for CC(C)(C)C1C/C(=C/c2ccco2)C(=O)/C(=C/c2ccco2)C1 (stereo not drawn) here
*A* t

*Q* Just curious, what result did CCOc1ccccc1NC(=O)CN1CCN(S(=O)(=O)c2ccc(Br)cc2)CC1 get here?
*A* f

*Q* Please state the recorded outcome for this compound: CC(=O)Oc1ccc(-c2nc3c(C)cccc3c(=O)o2)cc1
*A* f

*Q* Per the records of this test, what outcome belongs to COCCOC(=O)C1=C(C)NC(=O)NC1c1cc2c(cc1Br)OCO2 (stereo not drawn) ?
*A* f

*Q* Hello, I am checking results. What call was entered for CCOC(=O)CC1C(=O)NCCN1c1nc2c(C)cccn2c(=O)c1/C=C1\SC(=S)N(C(C)CC)C1=O (stereo not drawn) ?
*A* t

*Q* Identify the outcome logged in this assay for the compound shown: O=c1[nH]c(CCl)nc2cc(-c3ccc(Cl)cc3)sc12
*A* t
